Tested on: UACC-257 melanoma
Experiment: NCI-60 one-dose screen, 48 h
Conditions: 10 µM unless noted
Protocol: Cells are grown in 96 well plates and exposed to the test compound for 48 hours. Compounds are tested at a single concentration, which is 10^-5 M for most compounds. The reported endpoint is percent growth (GI% or GIPRCNT), where numbers from 0 - 100% represent growth inhibition, and numbers from -100% - 0 represent cell death. For example, a value of 40 represents 60% growth inhibition. A value of 0 means no net growth occurred over the course of the experiment. […]
Compounds without any hit were thinned out: in the full panel of roughly 83,000, 20% have a hit. Activity calls are given as the source filed them. Rule for the calls: active = growth percent below 10; inactive = the rest.
Outcome codes: active, inactive

molecule	assigned label
NC(=O)CC1C=CCC1 (centres undefined)	inactive
Cc1nc(Cl)c2c(n1)N(C)c1ccc(Cl)cc1C(C)C2 (centres undefined)	inactive
Cc1ccc(S(=O)(=O)Oc2ccc(Br)cc2Br)cc1	inactive
COc1ccc(C2=C(c3cn(C)c4ccccc34)C(=O)OC2)cc1OC	inactive
O=C1Nc2ccccc2/C1=C/C(=O)c1ccc(N2CCCCC2)cc1	inactive
Nc1ccc(NC(=O)c2ccccc2)c2c1C(=O)c1ccccc1C2=O	inactive
C=C(C)[C@@H]1CC[C@]2(C)[C@H](CC[C@@H]3[C@@H]([C@@](C)(O)CCC=C(C)C)CC[C@]32C)[C@@]1(C)CCC(=O)N1CCN(C)CC1	active
c1nc(N2CCOCC2)c2[nH]ccc2n1	inactive
COc1cc(C(=O)/C=C/c2c(-c3ccc(F)cc3)nc3sccn23)cc(OC)c1OC	inactive
CCN1CCN(CC(=O)Nc2nc3ccc(NCc4ccc(Cl)cc4)cc3s2)CC1	active
COc1ccc(-c2cc(-c3ccc(Cl)cc3)nc(NCCCCNc3ccnc4cc(Cl)ccc34)n2)cc1	active
CC1(C)CC[C@]23CC[C@]4(C)[C@H](CC[C@@H]5[C@@]6(C)C/C(=C/c7cccnc7)C(=O)C(C)(C)[C@@H]6CC[C@]54C)[C@H]2[C@H]1OC3=O	inactive
CC1(C)C(=O)/C(=C\c2ccco2)C[C@]2(C)[C@H]3CC=C4[C@@H]5C[C@](C)(C(=O)O)CC[C@]5(C)CC[C@@]4(C)[C@]3(C)CC[C@@H]12	active
O=C(N=c1n(-c2ccccc2)nc2n1CCN2C1=NCCN1C(=O)c1ccc(Cl)cc1)c1ccc(Cl)cc1	inactive
O=C1COCCN1c1ccc(NCc2cn(Cc3ccccc3)c3ccccc23)cc1	inactive
Clc1ccc2nc(-c3ccc(-c4ccc(/C=N/NC5=NCCN5)cc4)s3)cn2c1	inactive
O=c1cc(-c2ccccc2)oc2c(O)c(O)ccc12	inactive
CNC(=O)c1cc(Oc2cccc3nc(NC(=O)Nc4cc(C(F)(F)F)cc(C(F)(F)F)c4)ccc23)ccn1	inactive
COc1ccc2c(c1)C(C)Cc1c(Cl)ncnc1N2C (centres undefined)	inactive
